solubility at 24 h: recorded values
Test: Thermodynamic solubility (shake-flask)
Format: physicochemical
Conditions: aqueous phosphate buffer, 25 °C, pH 7.4, aqueous buffer, thermodynamic from solid, phosphate buffer pH 7.4, 24 hours
// return numeric value only (unit: µM, not printed)

C[C@@H]1Cc2c([nH]c3ccccc23)[C@@H](c2cc(OCCNCCCF)ccc2Cl)N1CC(F)(F)F: 0.7

Okay, next one:
## Task Give the measured solubility at 24 h of CC(CN1[C@H](c2c(Cl)ccc(OCCNCCCF)c2Cl)c2[nH]c3ccc(F)cc3c2C[C@H]1C)C(=O)O (single isomer, unassigned) .
## Result 953

----------
Experiment: Log D (shake flask, 1-octanol/aqueous buffer)
Assay type: physicochemical
Conditions: 1-octanol/aqueous buffer, pH 7.4, pH 7.4
Tag: 1 (yes) if measured logD is not below 3, 0 (no) if it is.

The following compounds have reported results that may help.
C[C@@H]1Cc2c([nH]c3ccccc23)[C@@H](c2nccc(OCCNCCCF)c2F)N1CC(F)F: 0 (no)
C[C@@H]1Cc2c([nH]c3ccccc23)[C@@H](c2cc(F)cc(OCCNCCCF)c2F)N1CC(F)(F)F: 1 (yes)
COc1ccc(O[C@@H](C)CNCCCF)cc1[C@@H]1c2[nH]c3ccccc3c2C[C@@H](C)N1CC(F)(F)CO: 0 (no)
Cc1c(OCCNCCC(F)F)ccc(F)c1[C@@H]1c2[nH]c3ccc(F)cc3c2C[C@@H](C)N1C[C@@H](C)C(=O)O: 0 (no)
Cc1c([C@@H]2c3[nH]c4ccccc4c3C[C@@H](C)N2C[C@@H](C)C(=O)O)ccnc1OCCN(C)CCCF: 0 (no)

## Task For this compound, is measured logD 3 or higher? C[C@@H]1Cc2c([nH]c3ccccc23)[C@@H](c2c(F)ccc(OCCNCCCF)c2Cl)N1CC(F)(F)CO
## Result 1 (yes)

## Task For this compound, is measured logD 3 or higher? C[C@@H]1Cc2c([nH]c3ccc(F)cc23)[C@@H](c2c(F)ccc(NCCNCCCF)c2F)N1CC(F)(F)CO
## Result 0 (no)

----------
Molecular target: Estrogen Receptor (ERα) in MCF-7 cells (Homo sapiens (Human))
Assay: MCF-7 ER down-regulation assay (immuno-fluorescence)
log10(IC50): recorded values
Give log10 of IC50, with IC50 taken in nM.

Worked cases, answers included:
COc1ccc(OCCNCCCF)nc1[C@@H]1c2[nH]c3ccccc3c2C[C@@H](C)N1CC(F)(F)F: 1.15
Cc1c(OCCN(C)CCCF)ccc(F)c1[C@@H]1c2[nH]c3ccccc3c2C[C@@H](C(F)(F)F)N1C[C@H](C)C(=O)O: -0.07
Cc1c(NCCNCCCF)ccnc1[C@@H]1c2[nH]c3ccccc3c2C[C@@H](C)N1CC(F)(F)F: 0.52

## Task Give the measured log10(IC50) of C[C@@H]1Cc2c([nH]c3ccc(F)cc23)[C@@H](c2c(F)cnc(OCCN(C)CCCF)c2F)N1CC(F)(F)CO .
## Result -1.00

## Task Give the measured log10(IC50) of C[C@@H]1Cc2c([nH]c3ccccc23)[C@@H](c2cc(OCCNCCCF)ccc2C#N)N1CC(F)(F)F .
## Result -0.30

## Task Give the measured log10(IC50) of Cc1c(OCCNCCCF)cncc1[C@@H]1c2[nH]c3ccccc3c2C[C@@H](C)N1CC(F)(F)F .
## Result -0.72

## Task Give the measured log10(IC50) of Cc1c(OCCNCCCF)ccc(F)c1[C@@H]1c2[nH]c3ccccc3c2C[C@@H](C)N1CC(F)(F)C(=O)O .
## Result 0.74

## Task Give the measured log10(IC50) of Cc1c(OCCN(C)CCCF)ccc(F)c1[C@@H]1c2[nH]c3ccc(F)cc3c2C[C@@H](C)N1C[C@@H](C)C(=O)O .
## Result -0.44

## Task Give the measured log10(IC50) of Cc1c(OCCN(C)CCCF)ncc(F)c1[C@@H]1c2[nH]c3ccccc3c2C[C@@H](C)N1CCC(=O)O .
## Result 0.00

----------
Assay: Log D (shake flask, 1-octanol/aqueous buffer)
Type: physicochemical
Details: 1-octanol/aqueous buffer, pH 7.4, pH 7.4
quantity measured: logD
Write the value as a bare number.

Worked cases, answers included:
C[C@@H]1Cc2c([nH]c3ccccc23)[C@@H](c2cc(OCCNCCCF)ccn2)N1CC(F)(F)F: 3.1
C[C@@H]1Cc2c([nH]c3cccc(F)c23)[C@@H](c2c(F)ccc(OCCNCCCF)c2F)N1CC(F)(F)CO: 3.3
Cc1c([C@@H]2c3[nH]c4ccccc4c3C[C@@H](C)N2CC(F)(F)F)ccnc1OCCNCCCF: 3.9
COc1ccc(OCCNCCCF)c(F)c1[C@@H]1c2[nH]c3ccc(F)cc3c2C[C@@H](C)N1CC(F)(F)CO: 2.9
Cc1c(OCCNCCCF)ccc(F)c1[C@@H]1c2[nH]c3ccccc3c2C[C@@H](C)N1CCC#N: 3.1
C[C@@H]1Cc2c([nH]c3ccccc23)[C@@H](c2nccc(OCCNCCCF)c2F)N1CC(F)(F)F: 2.7

## Task Give the measured logD of C[C@@H]1Cc2c([nH]c3ccccc23)[C@@H](c2c(F)ccc(NCCNCCCF)c2F)N1CC(F)(F)F .
## Result 3.4

----------
Assay: Log D (shake flask, 1-octanol/aqueous buffer)
Type: physicochemical
Conditions: 1-octanol/aqueous buffer, pH 7.4, pH 7.4
quantity measured: logD
Write the value as a bare number.

Worked cases, answers included:
C[C@@H]1Cc2c([nH]c3ccccc23)[C@@H](c2nccc(OCCNCCCF)c2F)N1CC1(F)COC1: 2.5
C[C@@H]1Cc2c([nH]c3ccccc23)[C@@H](c2cncc(OCCNCCCF)c2)N1CC(F)(F)F: 3.3
COc1ccc(OCCNCCCF)c(C)c1[C@@H]1c2[nH]c3ccccc3c2C[C@@H](C)N1CC(F)(F)F: 4.6
Cc1c(OCCNCCCF)ccc(F)c1[C@@H]1c2[nH]c3ccccc3c2CC(C)(C)N1C[C@H](C)C(=O)O: 0.6
CCc1ccc(OCCNCCCF)cc1[C@@H]1c2[nH]c3ccccc3c2C[C@@H](C)N1CC(F)(F)F: 4.6

## Task Give the measured logD of C[C@@H]1Cc2c([nH]c3ccccc23)[C@@H](c2cccc(OCCNCCCF)c2C(F)F)N1CC(F)(F)CO .
## Result 3.2

## Task Give the measured logD of C[C@@H]1Cc2c([nH]c3ccccc23)[C@@H](c2c(F)c(F)cc(OCCNCCCF)c2F)N1CC(F)(F)F .
## Result 4.1

----------
Experiment: Thermodynamic solubility (shake-flask)
Assay type: physicochemical
Conditions: aqueous buffer, thermodynamic from solid; phosphate buffer pH 7.4, 24 hours, 25° C.
quantity measured: solubility at 24 h (µM)
// return numeric value only (unit: µM, not printed)

## Task Give the measured solubility at 24 h of COc1ccc(OCCNCCCF)c(F)c1[C@@H]1c2[nH]c3ccccc3c2C[C@@H](C)N1CC(F)F .
## Result 475

----------
pIC50: recorded values
Target: Estrogen Receptor (ERα) in MCF-7 cells (Homo sapiens (Human), UniProt P03372)
Sequence (P03372 whole entry): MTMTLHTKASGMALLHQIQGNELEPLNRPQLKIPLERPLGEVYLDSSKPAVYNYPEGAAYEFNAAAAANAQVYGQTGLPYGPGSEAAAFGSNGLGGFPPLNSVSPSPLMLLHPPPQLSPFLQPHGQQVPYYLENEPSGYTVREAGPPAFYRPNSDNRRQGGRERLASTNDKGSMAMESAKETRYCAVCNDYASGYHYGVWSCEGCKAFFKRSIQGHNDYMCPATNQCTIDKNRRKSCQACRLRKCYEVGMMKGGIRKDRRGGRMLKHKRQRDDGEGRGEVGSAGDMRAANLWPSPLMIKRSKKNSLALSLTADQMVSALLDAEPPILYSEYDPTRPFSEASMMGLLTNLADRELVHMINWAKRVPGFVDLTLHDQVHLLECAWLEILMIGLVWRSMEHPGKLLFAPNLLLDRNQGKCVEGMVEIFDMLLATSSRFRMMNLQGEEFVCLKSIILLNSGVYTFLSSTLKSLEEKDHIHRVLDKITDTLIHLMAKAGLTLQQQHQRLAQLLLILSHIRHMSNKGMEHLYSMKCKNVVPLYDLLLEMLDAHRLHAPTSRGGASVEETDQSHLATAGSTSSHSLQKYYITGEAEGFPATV
Assay: MCF-7 ER down-regulation assay (immuno-fluorescence)
Type: cell-based
Note on pIC50: it is the negative log10 of concentration, concentration in mol/L.

Worked cases, answers included:
C[C@@H]1Cc2c([nH]c3c(F)cccc23)[C@@H](c2c(F)ccc(OCCNCCCF)c2F)N1CC(F)(F)CO [Example 60]: 9.92
COc1cnc(NCCNCCCF)cc1[C@@H]1c2[nH]c3ccccc3c2C[C@@H](C)N1CC(F)(F)F [Example 42]: 8.72
C[C@@H]1Cc2c([nH]c3ccccc23)[C@@H](c2cc(OCCNCCCF)ncc2F)N1CC(F)(F)F [Example 39]: 9.59

Okay, next one:
## Task Give the measured pIC50 of Cc1ccc(OCCNCCCF)nc1[C@@H]1c2[nH]c3ccccc3c2C[C@@H](C)N1CC(F)(F)F [Example 105] .
## Result 7.41

----------
Molecular target: Estrogen Receptor (ERα) in MCF-7 cells (Homo sapiens (Human))
Assay: MCF-7 ER down-regulation assay (immuno-fluorescence)
quantity measured: pIC50
Note on pIC50: it is the negative log10 of concentration, concentration in mol/L.

Worked cases, answers included:
Cc1c(OCCNCCCF)ccc(F)c1[C@@H]1c2[nH]c3ccccc3c2C[C@@H](C)N1CC(C)(C)C(=O)O: 9.00
COc1c(OCCNCCCF)cccc1[C@@H]1c2[nH]c3ccccc3c2C[C@@H](C)N1CC1(F)COC1: 7.60
C[C@@H](CN1[C@H](c2c(F)ccc(OCCNCCCF)c2Cl)c2[nH]c3ccccc3c2C[C@H]1C(F)(F)F)C(=O)O: 9.01
COc1c(F)cc(OCCNCCCF)cc1[C@@H]1c2[nH]c3ccccc3c2C[C@@H](C)N1CC(F)(F)F: 8.80
C[C@@H]1Cc2c([nH]c3ccc(F)cc23)[C@@H](c2c(F)ccc(OCCNCCCF)c2F)N1CC(F)(F)CO: 10.10

## Task Give the measured pIC50 of C[C@@H]1Cc2c([nH]c3ccccc23)[C@@H](c2cccc(OCCNCCCF)c2C#N)N1CC(F)(F)F .
## Result 8.82

## Task Give the measured pIC50 of Cc1c([C@@H]2c3[nH]c4ccccc4c3C[C@@H](C)N2CC(F)(F)F)ccnc1OCCNCCCF .
## Result 10.02

## Task Give the measured pIC50 of Cc1c(OCCN(C)CCCF)ccc(F)c1[C@@H]1c2[nH]c3ccc(F)cc3c2C[C@@H](C)N1C[C@H](C)C(=O)O .
## Result 9.40

## Task Give the measured pIC50 of Cc1ccc(OCCNCCCF)c(C)c1[C@@H]1c2[nH]c3ccccc3c2C[C@@H](C)N1CC(F)(F)F .
## Result 9.80

## Task Give the measured pIC50 of Cc1c(OCCNCCCF)ccc(F)c1[C@@H]1c2[nH]c3ccccc3c2C[C@@H](C)N1CC1(C(=O)O)CCC1 .
## Result 8.60
